Values from patent US10246453B2

# target_entity: NaV1.1 (Homo sapiens (Human), UniProt P35498)
# procedure_text: Sodium Influx Assay (Flux), NaV1.1
# Assay type: cell-based
# assay_context: Trex HEK293 cells, ANG2 dye; arithmetic mean
Where a name gives a salt, the structure may show the parent alone.
Readings of IC50 for the listed compounds
Return type: number; implicit unit µM.

| compound | IC50 / µM |
| --- | --- |
| CN(c1cc(F)c(S(=O)(=O)Nc2cscn2)cc1Cl)[C@H]1CCN(Cc2cccc(C(F)F)c2)C1 | 3.57 |
| Cc1cc(S(=O)(=O)Nc2cscn2)c(F)cc1N(C)[C@H]1CCN(CC2CCCCC2)C1 | 7.48 |
| Cc1cc(S(=O)(=O)Nc2cscn2)ccc1N(C)[C@H]1CCN(Cc2ccccc2)C1 [Example 284, 2,2,2-trifluoroacetate] | 10.5 |
| C[C@H](c1ccccc1)N1CC[C@H](N(C)c2ccc(S(=O)(=O)Nc3cscn3)cc2Cl)C1 [Example 251, 2,2,2-trifluoroacetate] | 7.45 |

Provide the reported IC50 (system: NaV1.1 (Homo sapiens (Human), UniProt P35498)) for CN(c1ccc(S(=O)(=O)Nc2cscn2)cc1C(F)(F)F)[C@H]1CCN(Cc2ccccc2)C1 [Example 294, formate] 15.7
